Assay Text: Drug metabolism in cynomolgus monkey liver microsomes assessed as 5beta-hydroxylcinobufaginn formation at 100 uM […] by UFLC-ESI-MS analysis
Type: ADME, Macaca fascicularis
Experimental Conditions: 0.5 h, read-out: Km(app)
Measured Endpoint: Km (µM)

>>> meas_value("CC(=O)O[C@H]1[C@H]2O[C@]23[C@@H]2CC[C@@H]4C[C@@H](O)CC[C@]4(C)[C@H]2CC[C@]3(C)[C@H]1c1ccc(=O)oc1 [CINOBUFAGIN]")
8.5

###

Assay Text: Drug metabolism in cynomolgus monkey liver microsomes assessed as 1alpha-hydroxylcinobufagin formation per mg of protein at 100 uM at 37 degC after 30 mins by UFLC-ESI-MS analysis
Assay type: ADME, Macaca fascicularis
Experimental Conditions: 0.5 h
Measured Endpoint: Vmax (nmol/min/mg)

>>> meas_value("CC(=O)O[C@H]1[C@H]2O[C@]23[C@@H]2CC[C@@H]4C[C@@H](O)CC[C@]4(C)[C@H]2CC[C@]3(C)[C@H]1c1ccc(=O)oc1")
2.12

###

Assay Text: Drug metabolism in Colony-bred Chinese Bama minipig liver microsomes assessed as 1alpha-hydroxylcinobufagin formation at 100 uM at 37 degC after 30 mins by UFLC-ESI-MS analysis
Format: ADME, Sus scrofa
Experimental Conditions: pig, 0.5 h, read-out: Km(app)
Measured Endpoint: Km (µM)

>>> meas_value("CC(=O)O[C@H]1[C@H]2O[C@]23[C@@H]2CC[C@@H]4C[C@@H](O)CC[C@]4(C)[C@H]2CC[C@]3(C)[C@H]1c1ccc(=O)oc1")
17.2

###

Assay Text: Drug metabolism in Swiss-Hauschka (ICR) mouse liver microsomes assessed as 5beta-hydroxylcinobufaginn formation per mg of protein at 100 uM at 37 degC after 30 mins by UFLC-ESI-MS analysis
Format: ADME
Experimental Conditions: 0.5 h
Measured Endpoint: Vmax

>>> meas_value("CC(=O)O[C@H]1[C@H]2O[C@]23[C@@H]2CC[C@@H]4C[C@@H](O)CC[C@]4(C)[C@H]2CC[C@]3(C)[C@H]1c1ccc(=O)oc1 [CINOBUFAGIN]")
"6.51 nmol/min/mg"

###

Assay Text: Drug metabolism in Colony-bred Chinese Bama minipig liver microsomes assessed as 5beta-hydroxylcinobufaginn formation per mg of protein at 100 uM at 37 degC after 30 mins by UFLC-ESI-MS analysis
Format: ADME, Sus scrofa
Experimental Conditions: pig, 0.5 h
Measured Endpoint: Vmax (nmol/min/mg)

>>> meas_value("CC(=O)O[C@H]1[C@H]2O[C@]23[C@@H]2CC[C@@H]4C[C@@H](O)CC[C@]4(C)[C@H]2CC[C@]3(C)[C@H]1c1ccc(=O)oc1")
0.65

###

Test system: Liver microsome
Assay Text: Retention time in Sprague-Dawley rat liver microsomes treated with 100 uM cinobufagin at 37 degC after 30 mins by UFLC-DAD-ESI-MS analysis
Format: ADME
Experimental Conditions: 0.5 h
Threshold check on Retention_time: at or above 8 min gives True, strictly below gives False.

>>> classification("CC(=O)O[C@H]1[C@H]2O[C@]23[C@@H]2CC[C@@H]4C[C@@H](O)C[C@H](O)[C@]4(C)[C@H]2CC[C@]3(C)[C@H]1c1ccc(=O)oc1")
"False"
>>> classification("C[C@]12CC[C@H](O)C[C@H]1CC[C@@H]1[C@@H]2CC[C@]2(C)[C@@H](c3ccc(=O)oc3)[C@@H](O)[C@H]3O[C@]132 [DESACETYLCINOBUFAGIN]")
"False"
>>> classification("C[C@]12CC[C@@H](O)C[C@H]1CC[C@@H]1[C@@H]2CC[C@]2(C)[C@@H](c3ccc(=O)oc3)[C@@H](O)[C@H]3O[C@]132")
"True"
>>> classification("CC(=O)O[C@H]1[C@H]2O[C@]23[C@@H]2CC[C@]4(O)C[C@@H](O)CC[C@]4(C)[C@H]2CC[C@]3(C)[C@H]1c1ccc(=O)oc1 [CINOBUFOTALIN]")
"False"
>>> classification("CC(=O)O[C@H]1[C@H]2O[C@]23[C@@H]2CC[C@@H]4C[C@H](O)CC[C@]4(C)[C@H]2CC[C@]3(C)[C@H]1c1ccc(=O)oc1")
"True"

###

Test system: Liver microsome
Assay Text: Drug metabolism in beagle dog liver microsomes assessed as 5beta-hydroxylcinobufaginn formation per mg of protein at 100 uM at 37 degC after 30 mins by UFLC-ESI-MS analysis
Assay type: ADME, Canis lupus familiaris
Experimental Conditions: 0.5 h
Measured Endpoint: Vmax (nmol/min/mg)

>>> meas_value("CC(=O)O[C@H]1[C@H]2O[C@]23[C@@H]2CC[C@@H]4C[C@@H](O)CC[C@]4(C)[C@H]2CC[C@]3(C)[C@H]1c1ccc(=O)oc1 [CINOBUFAGIN]")
0.44

###

Assay Text: Drug metabolism in cynomolgus monkey liver microsomes assessed as 5beta-hydroxylcinobufaginn formation per mg of protein at 100 uM […] by UFLC-ESI-MS analysis
Format: ADME, Macaca fascicularis
Experimental Conditions: 0.5 h
Measured Endpoint: Vmax (nmol/min/mg)

>>> meas_value("CC(=O)O[C@H]1[C@H]2O[C@]23[C@@H]2CC[C@@H]4C[C@@H](O)CC[C@]4(C)[C@H]2CC[C@]3(C)[C@H]1c1ccc(=O)oc1")
1.84
